Target: human PAR4 (Homo sapiens)
Construct: expressed in transfected cells; host or cells: HEK293 PAR4 Clone 1.2A (BMS Arctic ID 383940)
Assay: PAR4 FLIPR assay: antagonism of agonist-peptide-induced calcium mobilization in PAR4-expressing HEK293 cells
Format: cell-based
Settings: H-Ala-Phe(4-F)-[…]NH2-induced intracellular calcium mobilization, 11-point curves
endpoint.name: IC50 (nM)

(P) COCc1cnc2c(-c3nc4c(OC)c(F)c(F)cc4s3)cc(C)cc2n1 [Example 269]
(Q) COc1cnc2c(-c3nc4c(Cl)c(F)c(OCCOC(=O)Nc5ccncc5)cc4s3)cc(C)cc2n1 [Example 335]
(R) COc1cnc2c(-c3nc4c(Cl)c(F)c(OCCOC(=O)Nc5ccns5)cc4s3)cc(C)cc2n1 [Example 621]
Problem: Given 3 molecules, produce a descending ranking by IC50. Answer by writing out the labels in the requested order.
Result: R, P, Q
(R: 8 nM, P: 3.6 nM, Q: 2.5 nM)

----------
Target: human PAR4 (Homo sapiens)
Experiment: PAR4 FLIPR assay: antagonism of agonist-peptide-induced calcium mobilization in PAR4-expressing HEK293 cells
Details: H-Ala-Phe(4-F)-[…]NH2-induced intracellular calcium mobilization, 11-point curves
pIC50: −log10 of the molar value.
endpoint.name: pIC50

INSERT INTO assay_data (query_smiles, readout_number) VALUES
  ('COc1cnc2c(-c3nc4cc(F)c(O[C@@H](C)[C@@H](C)OC(=O)Nc5ccc(C(=O)N6CCC[C@@H](O)C6)nc5)cc4s3)cc(C)cc2n1', 9.10);

(A) COc1cnc2c(-c3nc4c(Cl)c(F)c(OCCN(C)C(=O)Nc5cnc(C)nc5)cc4s3)cc(C)cc2n1
(B) CCc1cnc2c(-c3nc4cc(F)c(O[C@@H](C)[C@@H](C)OC(=O)Nc5cnc(C)nc5)cc4s3)cc(Cl)cc2c1
Problem: Compare the recorded pIC50 of A and B ; state which is larger. Reply briefly: the label of your chosen item.
Result: B

----------
Target: human PAR4 (Homo sapiens, UniProt Q96RI0)
Assay: PAR4 FLIPR assay: antagonism of agonist-peptide-induced calcium mobilization in PAR4-expressing HEK293 cells
Conditions: H-Ala-Phe(4-F)-[…]NH2-induced intracellular calcium mobilization, 11-point curves
endpoint.name: IC50 (nM)

Reference set, count: 5
INSERT INTO measurements (compound, readout_number) VALUES
  ('COc1cnc2c(-c3nc4cc(F)c(OC[C@@H](C)OC(=O)Nc5ccc(C(=O)NCC6(CO)CCC6)nc5)cc4s3)cc(C)cc2n1 [Example 473]', 3.4),
  ('COc1cnc2c(-c3nc4cc(F)c(O[C@@H](C)[C@@H](C)OC(=O)Nc5ccc(CO)nc5)cc4s3)cc(Cl)cc2n1 [Example 831]', 2.2),
  ('COc1cnc2c(-c3nc4cc(F)c(O[C@@H](C)[C@@H](C)OC(=O)Nc5ccc(C(N)=O)nc5)cc4s3)cc(C)cc2n1 (stereo in doubt) [Example 391]', 2),
  ('COc1cnc2c(-c3nc4c(Cl)c(F)c(OCCOC(=O)NCc5cnn(C)c5)cc4s3)cc(C)cc2n1 [Example 399]', 3.9),
  ('COc1cc(C(O)c2ccccc2C(C)C)c2nc(-c3cc(C)cc4nc(OC)cnc34)sc2c1 (stereo not drawn) [Example 643]', 5.3);

(P) COCc1cnc2c(-c3nc4c(C)cc(OCCNS(=O)(=O)c5ccccc5)cc4s3)cc(C)cc2n1 [Example 95]
(Q) COCc1cnc2c(-c3nc4c(s3)C(O)CCC4)cc(C)cc2n1 (stereo not drawn) [Example 143]
Problem: Min IC50? P | Q Reply briefly: the label of your chosen item.
Result: P

----------
Molecular target: human PAR4 (Homo sapiens, UniProt Q96RI0)
Assay: PAR4 FLIPR assay: antagonism of agonist-peptide-induced calcium mobilization in PAR4-expressing HEK293 cells
Conditions: H-Ala-Phe(4-F)-[…]NH2-induced intracellular calcium mobilization, 11-point curves
pIC50: −log10 of the molar value.
endpoint.name: pIC50

Reference set, count: 5
INSERT INTO measurements (molecule, assay_system, readout_number) VALUES
  ('COc1cnc2c(-c3nc4cc(F)c(O[C@@H](C)[C@@H](C)OC(=O)Nc5cnc(C(=O)NCC(C)(C)O)nc5)cc4s3)cc(C)cc2n1', 'human PAR4 (Homo sapiens, UniProt Q96RI0)', 9.40),
  ('COCc1cnc2c(-c3nc4c(Cl)c(F)c(OC)cc4s3)cc(C)cc2n1', 'human PAR4 (Homo sapiens, UniProt Q96RI0)', 8.72),
  ('COc1ccc(NC(=O)OC[C@H](C)Oc2cc3sc(-c4cc(C)cc5nc(OC)cnc45)nc3c(Cl)c2F)cn1 (single isomer, unassigned)', 'human PAR4 (Homo sapiens, UniProt Q96RI0)', 8.89),
  ('COc1cnc2c(-c3nc4cc(F)c(O[C@@H](C)[C@@H](C)OC(=O)Nc5ccc(C)nc5)nc4s3)cc(C)cc2n1', 'human PAR4 (Homo sapiens, UniProt Q96RI0)', 8.74),
  ('COc1cnc2c(-c3nc4c(C)cc(OCCOC(=O)Nc5cccnc5)cc4s3)cc(C)cc2n1', 'human PAR4 (Homo sapiens, UniProt Q96RI0)', 8.96);

(A) COc1cnc2c(-c3nc4cc(F)c(O[C@@H](C)[C@@H](C)OC(=O)Nc5ccnc(C(=O)N(C)C)c5)cc4s3)cc(C)cc2n1
(B) CCOc1cnc2c(-c3nc4c(C(O)C(C)(C)C)cc(OC)cc4s3)cc(C)cc2n1 (centres unmarked)
(C) COc1cnc2c(-c3nc4c(Cl)c(F)c(OCCNS(=O)(=O)c5ccccc5)cc4s3)cc(C)cc2n1
Problem: Please produce an ascending ranking of these molecules based on pIC50. Answer by writing out the labels in the requested order.
Result: C, B, A
(C: 7.24, B: 8.44, A: 8.72)

(a) COc1cnc2c(-c3nc4c(C)cc(OCCNS(=O)(=O)c5ccc(F)cc5)nc4s3)cc(C)cc2n1
(b) COCc1cnc2c(-c3nc4c(C)c(F)c(OCCO)cc4s3)cc(C)cc2n1
(c) COCc1cnc2c(-c3nc4c(C)c(C)c(OCC(C)O)cc4s3)cc(C)cc2n1 (racemic)
Problem: Please produce an ascending ranking of these molecules based on pIC50. Answer by writing out the labels in the requested order.
Result: c, a, b
(c: 8.29, a: 8.60, b: 8.89)

----------
Biological target: human PAR4 (Homo sapiens, UniProt Q96RI0)
Sequence (Q96RI0 18-385): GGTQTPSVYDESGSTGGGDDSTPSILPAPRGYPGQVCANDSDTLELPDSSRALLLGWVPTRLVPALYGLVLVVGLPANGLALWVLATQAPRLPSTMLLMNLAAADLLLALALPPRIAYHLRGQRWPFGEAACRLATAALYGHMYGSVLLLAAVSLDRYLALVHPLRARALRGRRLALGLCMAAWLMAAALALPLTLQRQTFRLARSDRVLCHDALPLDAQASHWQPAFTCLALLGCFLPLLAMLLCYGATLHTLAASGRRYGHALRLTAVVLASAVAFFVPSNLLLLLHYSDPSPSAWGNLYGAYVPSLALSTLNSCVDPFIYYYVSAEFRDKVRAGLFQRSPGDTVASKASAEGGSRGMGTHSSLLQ
Test: PAR4 FLIPR assay: antagonism of agonist-peptide-induced calcium mobilization in PAR4-expressing HEK293 cells
Details: H-Ala-Phe(4-F)-[…]NH2-induced intracellular calcium mobilization, 11-point curves
endpoint.name: IC50 (nM)

INSERT INTO measurements (compound, units_symbol, readout_number) VALUES
  ('COCc1cnc2c(-c3nc4cc(Cl)c(OC)cc4s3)cc(C)cc2n1', 'nM', 0.9),
  ('COc1cnc2c(-c3nc4c(C)cc(OCCNS(=O)(=O)c5cccnc5)cc4s3)cc(Cl)cc2n1', 'nM', 6.9),
  ('COc1cnc2c(-c3nc4cc(F)c(O[C@@H](C)[C@@H](C)OC(N)=O)cc4s3)cc(C)cc2n1', 'nM', 84),
  ('COC(=O)c1ccc(NC(=O)O[C@H](C)[C@H](C)Oc2cc3sc(-c4cc(Cl)cc5nc(OC)cnc45)nc3cc2F)cn1', 'nM', 1.6),
  ('COc1cnc2c(-c3nc4c(s3)CC(CCO)C4)cc(C)cc2n1 (centres unmarked)', 'nM', 5.6);

(P) COc1cnc2c(-c3nc4ccc(OC)nc4s3)cc(C)cc2n1
(Q) COc1cnc2c(-c3nc4c(C(O)C(C)(C)C)cc(F)cc4s3)cc(C)cc2n1 (centres unmarked)
(R) COc1cc(F)cc(C(O)c2cc(OC)cc3sc(-c4cc(C)cc5nc(OC)cnc45)nc23)c1 (centres unmarked)
Problem: Please produce an ascending ranking of these compounds based on IC50. Answer by writing out the labels in the requested order.
Result: Q, R, P
(Q: 6.6 nM, R: 10 nM, P: 94 nM)
